System: SNB-7 CNS
Assay: In vitro cytotoxicity (MTS, 72 h), SNB-7
Format: cell-based
Conditions: Homo sapiens; SNB-7, 72 hours of incubation
pIC50: −log10 of the molar value.
endpoint: pIC50

Write down the reported pIC50 of `C[C@]1(CO)O[C@@H](n2ccc(N)nc2=O)[C@@H](F)[C@@H]1O` , test system: SNB-7 CNS.
< 3.70

###

System: DLD-1 colon
Test: In vitro cytotoxicity (MTS, 72 h), DLD-1
Format: cell-based
Conditions: Homo sapiens; DLD-1, 72 hours of incubation
endpoint: IC50

For the molecule shown here, `C[C@]1(CO)O[C@@H](n2ccc(N)nc2=O)[C@@H](F)[C@@H]1O` , give the reported IC50.
> 200 µM

All figures here come from patent US20120149657A1.
